// data source = BindingDB's records for doi:10.1016/j.bmc.2019.115091

experiment: Inhibition of chemR23 expressed in human CAL1 cells assessed as reduction in chemerin-induced chemotaxis incubated for 4 hrs by cell counting based CellTiter-Glo assay

# sample_smiles, IC50 [nM]
rows = [
    ("CCCCN(c1nc2cc(C(=O)NC)ccc2o1)[C@H](C)c1ccc(-c2ccccc2-c2nnn[nH]2)cc1", 380),
]
